Each recorded value in this set is attributed to the kinase profiling compilation of Christmann-Franck et al. (2016).

- study_target: ULK2 (human) (UniProt Q8IYT8)
- Sequence (Q8IYT8 whole entry, looked up): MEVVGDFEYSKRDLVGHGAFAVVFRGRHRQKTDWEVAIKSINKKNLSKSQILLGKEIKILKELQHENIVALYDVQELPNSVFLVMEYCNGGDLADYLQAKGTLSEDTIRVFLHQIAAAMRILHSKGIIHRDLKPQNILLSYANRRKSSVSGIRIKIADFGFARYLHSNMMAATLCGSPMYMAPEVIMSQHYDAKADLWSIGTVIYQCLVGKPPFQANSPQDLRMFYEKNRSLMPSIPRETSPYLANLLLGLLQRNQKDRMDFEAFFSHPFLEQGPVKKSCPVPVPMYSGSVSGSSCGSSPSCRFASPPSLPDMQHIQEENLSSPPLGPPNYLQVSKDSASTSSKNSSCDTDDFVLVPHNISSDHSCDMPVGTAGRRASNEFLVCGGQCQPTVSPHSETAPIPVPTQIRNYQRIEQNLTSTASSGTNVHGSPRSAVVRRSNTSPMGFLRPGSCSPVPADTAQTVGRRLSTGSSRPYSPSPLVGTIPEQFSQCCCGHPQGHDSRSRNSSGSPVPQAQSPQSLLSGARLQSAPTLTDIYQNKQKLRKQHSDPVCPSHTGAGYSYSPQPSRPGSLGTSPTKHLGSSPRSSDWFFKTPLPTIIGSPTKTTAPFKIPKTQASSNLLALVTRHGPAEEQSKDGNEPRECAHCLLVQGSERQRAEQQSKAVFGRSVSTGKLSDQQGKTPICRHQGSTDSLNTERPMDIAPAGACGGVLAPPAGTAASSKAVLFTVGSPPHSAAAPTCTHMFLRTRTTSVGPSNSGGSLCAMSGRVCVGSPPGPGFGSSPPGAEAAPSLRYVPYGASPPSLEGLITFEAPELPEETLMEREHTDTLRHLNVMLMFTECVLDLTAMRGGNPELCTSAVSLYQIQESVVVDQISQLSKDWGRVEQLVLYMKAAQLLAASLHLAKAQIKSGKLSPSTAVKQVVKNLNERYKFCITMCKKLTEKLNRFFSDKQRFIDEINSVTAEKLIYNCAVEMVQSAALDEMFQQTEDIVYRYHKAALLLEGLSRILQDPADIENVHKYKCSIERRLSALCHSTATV
- protocol_text: radiometric filter-binding kinase assay, Kinase HotSpot
- test_conditions: compound 0.5 µM; ATP 10 µM
property: residual activity (%)
Write the number in % without appending the unit.

{"chem_smiles": "N#C/C(=C1/Nc2ccccc2S1)c1ccnc(NCCc2cccnc2)n1", "measurement_units": "%", "residual activity": 116}
{"chem_smiles": "O=C(c1ccccc1)c1ccc(N2CCOCC2)cc1O", "measurement_units": "%", "residual activity": 96.7}
{"chem_smiles": "COc1cccc(-c2cc(=O)c3ccccc3o2)c1N", "measurement_units": "%", "residual activity": 109}
{"chem_smiles": "COc1cc2c(Nc3ccc(Br)cc3F)ncnc2cc1OCC1CCN(C)CC1", "measurement_units": "%", "residual activity": 108}
{"chem_smiles": "O=C1NC(=O)c2cc(Nc3ccc(F)cc3)c(Nc3ccc(F)cc3)cc21", "measurement_units": "%", "residual activity": 84.7}

Request: Under ULK2 (human) (UniProt Q8IYT8): report residual activity of CCCCc1c(-c2ccc(O)cc2)[nH]c2nccnc12 .
Response: 112

Request: Consider the compound c1ccc(-c2cnc(Nc3ccc(OCCN4CCCC4)cc3)s2)cc1 tested on ULK2 (human) (UniProt Q8IYT8); state its residual activity.
Response: 78.3

Request: Under ULK2 (human) (UniProt Q8IYT8): report residual activity of O=c1cc(N2CCOCC2)oc2c(-c3ccccc3)cccc12 .
Response: 113

Request: Report measured residual activity on ULK2 (human) (UniProt Q8IYT8); entry: O=c1c2ccccc2[nH]c(=S)n1CCN1CCC(=C(c2ccc(F)cc2)c2ccc(F)cc2)CC1
Response: 96.5

Request: Fill in residual activity for N#CCCc1ccc2c(c1)-c1[nH]c3ccc([N+](=O)[O-])cc3c1CC(=O)N2 tested with ULK2 (human) (UniProt Q8IYT8).
Response: 73.1

Request: Fill in: residual activity on ULK2 (human) (UniProt Q8IYT8), entry COc1cc2c(N3CCN(C(=O)Nc4ccc(OC(C)C)cc4)CC3)ncnc2cc1OCCCN1CCCCC1
Response: 100
